Test system: HCT-15
test: Cytotoxicity against human HCT15 cells after 2 days by CCK-8 assay
Assay type: functional, cell-based
particulars: HCT-15, 48 h
observed-property: IC50 (nM)
Field format: number, assumed nM, no unit text.

May I ask what IC50 has been recorded for CCCCCCNCC(O)COc1cc(O)c2c(=O)c3ccccc3oc2c1 (stereo unspecified) ?
1530

May I ask what IC50 has been recorded for CC[C@@]1(O)C(=O)OCc2c1cc1n(c2=O)Cc2cc3ccccc3nc2-1 [CAMPTOTHECIN] ?
420

May I ask what IC50 has been recorded for CCCNCC(O)COc1cc(O)c2c(=O)c3cccc(OC)c3oc2c1 (stereo unspecified) ?
5390

May I ask what IC50 has been recorded for CCCCNCC(O)COc1cc(O)c2c(=O)c3cccc(OC)c3oc2c1 (stereo unspecified) ?
9110

May I ask what IC50 has been recorded for COc1cc([C@@H]2c3cc4c(cc3[C@@H](O[C@@H]3O[C@@H]5CO[C@@H](C)O[C@H]5[C@H](O)[C@H]3O)[C@H]3COC(=O)[C@H]23)OCO4)cc(OC)c1O [ETOPOSIDE] ?
5120

May I ask what IC50 has been recorded for CCCCNCC(O)COc1cc(O)c2c(=O)c3ccccc3oc2c1 (stereo unspecified) ?
780

May I ask what IC50 has been recorded for CCCCCCNCC(O)COc1cc(O)c2c(=O)c3cccc(OC)c3oc2c1 (stereo unspecified) ?
6320

May I ask what IC50 has been recorded for COc1cccc2c1C(=O)c1c(O)c3c(c(O)c1C2=O)C[C@@](O)(C(=O)CO)C[C@@H]3O[C@H]1C[C@H](N)[C@H](O)[C@H](C)O1 [DOXORUBICIN] ?
1380

May I ask what IC50 has been recorded for CCCCCNCC(O)COc1cc(O)c2c(=O)c3ccccc3oc2c1 (stereo unspecified) ?
710

May I ask what IC50 has been recorded for CCCNCC(O)COc1cc(O)c2c(=O)c3ccccc3oc2c1 (stereo unspecified) ?
5490

May I ask what IC50 has been recorded for CCCCCNCC(O)COc1cc(O)c2c(=O)c3cccc(OC)c3oc2c1 (stereo unspecified) ?
1000

* * *

Assignment: determine reported inhibition for the given compounds.
target-of-assay: DNA topoisomerase 2-alpha (Homo sapiens)
Sequence (P11388 whole entry): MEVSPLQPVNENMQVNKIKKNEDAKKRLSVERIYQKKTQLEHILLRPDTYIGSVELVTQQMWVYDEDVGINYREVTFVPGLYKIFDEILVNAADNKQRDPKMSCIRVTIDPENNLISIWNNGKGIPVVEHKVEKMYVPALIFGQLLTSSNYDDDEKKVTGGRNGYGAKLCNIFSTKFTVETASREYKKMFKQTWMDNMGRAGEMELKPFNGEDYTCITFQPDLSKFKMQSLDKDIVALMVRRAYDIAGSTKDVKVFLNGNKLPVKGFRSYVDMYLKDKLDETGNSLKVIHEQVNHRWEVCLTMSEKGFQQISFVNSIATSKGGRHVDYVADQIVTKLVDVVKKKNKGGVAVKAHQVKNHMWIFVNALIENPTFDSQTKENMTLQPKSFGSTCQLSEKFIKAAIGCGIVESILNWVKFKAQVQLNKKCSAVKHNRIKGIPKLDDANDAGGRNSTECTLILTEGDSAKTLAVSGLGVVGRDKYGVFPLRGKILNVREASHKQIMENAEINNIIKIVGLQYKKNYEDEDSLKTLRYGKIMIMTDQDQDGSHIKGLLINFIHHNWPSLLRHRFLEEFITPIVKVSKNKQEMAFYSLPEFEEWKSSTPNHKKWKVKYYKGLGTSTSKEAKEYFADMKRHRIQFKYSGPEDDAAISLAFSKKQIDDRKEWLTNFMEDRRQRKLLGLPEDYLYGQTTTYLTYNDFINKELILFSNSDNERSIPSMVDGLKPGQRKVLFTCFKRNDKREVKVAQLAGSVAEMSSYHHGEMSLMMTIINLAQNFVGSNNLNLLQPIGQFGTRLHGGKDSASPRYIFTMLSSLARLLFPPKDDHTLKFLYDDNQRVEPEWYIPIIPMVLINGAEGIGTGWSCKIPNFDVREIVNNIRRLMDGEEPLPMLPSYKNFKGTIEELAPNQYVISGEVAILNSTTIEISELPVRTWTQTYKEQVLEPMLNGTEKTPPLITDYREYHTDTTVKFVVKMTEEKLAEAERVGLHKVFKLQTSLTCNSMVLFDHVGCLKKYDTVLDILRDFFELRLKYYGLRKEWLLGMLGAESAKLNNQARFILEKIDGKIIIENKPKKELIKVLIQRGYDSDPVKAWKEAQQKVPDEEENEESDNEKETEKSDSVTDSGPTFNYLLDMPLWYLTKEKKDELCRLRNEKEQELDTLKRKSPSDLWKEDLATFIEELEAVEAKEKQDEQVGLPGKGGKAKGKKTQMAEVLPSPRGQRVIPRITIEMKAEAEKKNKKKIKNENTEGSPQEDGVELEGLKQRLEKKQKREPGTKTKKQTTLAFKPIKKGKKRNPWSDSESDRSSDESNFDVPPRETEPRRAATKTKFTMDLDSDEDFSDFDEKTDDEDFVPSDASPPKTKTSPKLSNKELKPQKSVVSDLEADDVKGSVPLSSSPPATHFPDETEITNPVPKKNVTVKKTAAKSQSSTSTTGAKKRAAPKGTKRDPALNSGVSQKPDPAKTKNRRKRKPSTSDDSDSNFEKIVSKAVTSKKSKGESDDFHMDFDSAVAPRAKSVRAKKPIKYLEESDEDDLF
test: Inhibition of human DNA topoisomerase-2alpha assessed as relaxation of supercoiled pBR322 DNA at 100 uM after 30 mins by agarose gel electrophoresis relative to control
Field format: number, assumed %, no unit text.

Form entry - test system: DNA topoisomerase 2-alpha (Homo sapiens); read-out: inhibition; compound: CCCCCNCC(O)COc1cc(O)c2c(=O)c3cccc(OC)c3oc2c1 (stereo not drawn)
100

Form entry - test system: DNA topoisomerase 2-alpha (Homo sapiens); read-out: inhibition; compound: CCCNCC(O)COc1cc(O)c2c(=O)c3cccc(OC)c3oc2c1 (stereo not drawn)
100

Form entry - test system: DNA topoisomerase 2-alpha (Homo sapiens); read-out: inhibition; compound: CCCCCCNCC(O)COc1cc(O)c2c(=O)c3cccc(OC)c3oc2c1 (stereo not drawn)
100

Form entry - test system: DNA topoisomerase 2-alpha (Homo sapiens); read-out: inhibition; compound: CCCCCNCC(O)COc1cc(O)c2c(=O)c3ccccc3oc2c1 (stereo not drawn)
92.9

Form entry - test system: DNA topoisomerase 2-alpha (Homo sapiens); read-out: inhibition; compound: CCCNCC(O)COc1cc(O)c2c(=O)c3ccccc3oc2c1 (stereo not drawn)
93.8

Form entry - test system: DNA topoisomerase 2-alpha (Homo sapiens); read-out: inhibition; compound: CCCCNCC(O)COc1cc(O)c2c(=O)c3ccccc3oc2c1 (stereo not drawn)
95.1

Form entry - test system: DNA topoisomerase 2-alpha (Homo sapiens); read-out: inhibition; compound: CCCCCCNCC(O)COc1cc(O)c2c(=O)c3ccccc3oc2c1 (stereo not drawn)
80.7

Form entry - test system: DNA topoisomerase 2-alpha (Homo sapiens); read-out: inhibition; compound: CCCCNCC(O)COc1cc(O)c2c(=O)c3cccc(OC)c3oc2c1 (stereo not drawn)
100
